Recorded values, source paper PMC11445558.

biological target: TRIM25 CC-PRY/SPRY (Homo sapiens, UniProt Q14258 189-630); experiment: ITC; KD1 of two sites, mean of replicates 0.25;0.03;0.02; ITC: 20 mM MES pH 6.5, 75 mM NaCl, 0.5 mM TCEP, 20 C; protein NMR: 20 mM sodium phosphate pH 6.5, 150 mM NaCl, 2 mM TCEP, 293 K; details: protein: recombinant; tags: His-Trx, cleaved (3C); chain copies: 2; hairpin
Sequence (Q14258 189-630): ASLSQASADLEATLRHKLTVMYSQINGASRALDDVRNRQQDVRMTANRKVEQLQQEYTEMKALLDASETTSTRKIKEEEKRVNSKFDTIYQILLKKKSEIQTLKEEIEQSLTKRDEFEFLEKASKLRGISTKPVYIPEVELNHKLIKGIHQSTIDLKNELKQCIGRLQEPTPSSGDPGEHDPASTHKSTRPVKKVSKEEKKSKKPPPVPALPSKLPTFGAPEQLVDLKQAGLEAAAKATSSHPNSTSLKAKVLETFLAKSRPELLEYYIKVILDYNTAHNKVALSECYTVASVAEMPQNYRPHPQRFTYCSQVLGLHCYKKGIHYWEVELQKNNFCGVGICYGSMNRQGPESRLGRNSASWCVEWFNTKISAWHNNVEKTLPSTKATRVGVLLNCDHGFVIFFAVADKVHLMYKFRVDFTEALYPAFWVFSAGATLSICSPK
property: pKd
Note on units: pKd is unitless, being -log10 of a concentration expressed in mol/L.

// query Value lookup for pKd; key = UUUUAUCUGAGUUGGAGGUGAAG (structured_RNA) [Lnczc3h7a-SL]
// result 7.00
